The reader will find reported GI50 values listed item by item below.
test system: M14; experiment: SRB 48 h growth assay, Melanoma M14; assay type: cell-based, human; conditions: Homo sapiens, read-out: Log10 GI50 (converted)
A number alone suffices; assume nM.

compound	endpoint.unit	GI50
C#Cc1ccc(-n2c(/C=C/c3ccc(O)cc3)nc3ncccc3c2=O)cc1 [4b]	nM	2690
C#Cc1ccc(-n2c(/C=C/c3ccc(C(F)(F)F)cc3)nc3ncccc3c2=O)cc1 [4c]	nM	2090
C#Cc1ccc(-n2c(/C=C/c3ccc4ccccc4n3)nc3ncccc3c2=O)cc1 [4t]	nM	263
C#Cc1ccc(-n2c(/C=C/c3ccc(Cl)c(F)c3)nc3ncccc3c2=O)cc1 [4g]	nM	302

Lookup: GI50 / M14 / C#Cc1ccc(-n2c(/C=C/c3ccc4ccccc4c3)nc3ncccc3c2=O)cc1 [4s]
2090

Lookup: GI50 / M14 / C#Cc1ccc(-n2c(/C=C/c3cc(OC)c(OC)c(OC)c3)nc3ncccc3c2=O)cc1 [4q]
4900

* * *

The reader will find reported GI50 values listed item by item below.
system: HL-60(TB); assay: SRB 48 h growth assay, Leukemia HL-60(TB); assay type: cell-based, human; conditions: Homo sapiens, read-out: Growth Inhibition GI50
A number alone suffices; assume nM.

Recorded results for 4 molecules are shown here.
molecule	GI50, nM
C#Cc1ccc(-n2c(/C=C/c3ccc(C(F)(F)F)cc3)nc3ncccc3c2=O)cc1 [4c]	2070
C#Cc1ccc(-n2c(/C=C/c3ccc4ccccc4n3)nc3ncccc3c2=O)cc1 [4t]	290
C#Cc1ccc(-n2c(/C=C/c3ccc4ccccc4c3)nc3ncccc3c2=O)cc1 [4s]	1660
C#Cc1ccc(-n2c(/C=C/c3ccc(O)cc3)nc3ncccc3c2=O)cc1 [4b]	3200

We next turn to a different molecule, shown below.
Query: GI50; subject: C#Cc1ccc(-n2c(/C=C/c3cc(OC)c(OC)c(OC)c3)nc3ncccc3c2=O)cc1 [4q]
3840

* * *

system: NCI-H460; test: SRB 48 h growth assay, Non-small Cell Lung NCI-H460; format: cell-based, human; conditions: Homo sapiens, read-out: Growth Inhibition GI50
measured.parameter: GI50 (nM)
A number alone suffices; assume nM.

Recorded results for 4 compounds are shown here.
compound	endpoint.unit	GI50
C#Cc1ccc(-n2c(/C=C/c3ccc4ccccc4c3)nc3ncccc3c2=O)cc1 [4s]	nM	2880
C#Cc1ccc(-n2c(/C=C/c3ccc4ccccc4n3)nc3ncccc3c2=O)cc1 [4t]	nM	290
C#Cc1ccc(-n2c(/C=C/c3ccc(O)cc3)nc3ncccc3c2=O)cc1 [4b]	nM	3330
C#Cc1ccc(-n2c(/C=C/c3ccc(C(F)(F)F)cc3)nc3ncccc3c2=O)cc1 [4c]	nM	1980

We next turn to a different compound, shown below.
Query: GI50; subject: C#Cc1ccc(-n2c(/C=C/c3cc(OC)c(OC)c(OC)c3)nc3ncccc3c2=O)cc1 [4q]
4110

* * *

tested on: HCT-116; test: SRB 48 h growth assay, Colon HCT-116; format: cell-based, human; conditions: HCT-116, Colon
measured.parameter: Log10 TGI50
Number only, please.

compound.string	Log10 TGI50
C#Cc1ccc(-n2c(/C=C/c3ccc(C(F)(F)F)cc3)nc3ncccc3c2=O)cc1	−5.52

We next turn to a different compound, shown below.
Query: Log10 TGI50; subject: C#Cc1ccc(-n2c(/C=C/c3ccc4ccccc4n3)nc3ncccc3c2=O)cc1
−5.92

* * *

tested on: BT-549; assay: SRB 48 h growth assay, Breast BT-549; assay type: cell-based, human; settings: BT-549, Breast
The reader will find reported Log10 TGI50 values listed item by item below.
Number only, please.

Recorded results for 4 compounds are shown here.
compound.string	measured.parameter	data.value
C#Cc1ccc(-n2c(/C=C/c3ccc(C(F)(F)F)cc3)nc3ncccc3c2=O)cc1	Log10 TGI50	−5.47
C#Cc1ccc(-n2c(/C=C/c3ccc4ccccc4n3)nc3ncccc3c2=O)cc1	Log10 TGI50	−5.87
C#Cc1ccc(-n2c(/C=C/c3ccc4ccccc4c3)nc3ncccc3c2=O)cc1	Log10 TGI50	−5.26
C#Cc1ccc(-n2c(/C=C/c3ccc(O)cc3)nc3ncccc3c2=O)cc1	Log10 TGI50	−4.06

We next turn to a different compound, shown below.
Query: Log10 TGI50; subject: C#Cc1ccc(-n2c(/C=C/c3cc(OC)c(OC)c(OC)c3)nc3ncccc3c2=O)cc1
−5.00

* * *

system: NCI-H322M; test: SRB 48 h growth assay, Non-small Cell Lung NCI-H322M; assay type: cell-based, human; conditions: Homo sapiens, read-out: Log10 GI50 (converted)
Mark 1.0 for GI50 under 7 µM, 0.0 if at or over.

These recorded examples may help you get a feel for the data.
compound	discrete.label
C#Cc1ccc(-n2c(/C=C/c3ccc(O)cc3)nc3ncccc3c2=O)cc1 [4b]	1.0
C#Cc1ccc(-n2c(/C=C/c3cc(OC)c(OC)c(OC)c3)nc3ncccc3c2=O)cc1 [4q]	0.0
C#Cc1ccc(-n2c(/C=C/c3ccc(C(F)(F)F)cc3)nc3ncccc3c2=O)cc1 [4c]	1.0
C#Cc1ccc(-n2c(/C=C/c3ccc4ccccc4n3)nc3ncccc3c2=O)cc1 [4t]	1.0

Please examine the following record next.
# strict comparison: is reported GI50 < 7 µM? input = C#Cc1ccc(-n2c(/C=C/c3ccc4ccccc4c3)nc3ncccc3c2=O)cc1 [4s]
0.0

* * *

system: HS578T; assay: SRB 48 h growth assay, Breast HS578T; format: cell-based, human
The reader will find reported Log10 TGI50 values listed item by item below.
Number only, please.

compound.string	measured.parameter	data.value
C#Cc1ccc(-n2c(/C=C/c3cc(OC)c(OC)c(OC)c3)nc3ncccc3c2=O)cc1	Log10 TGI50	−4.64

We next turn to a different compound, shown below.
Lookup: Log10 TGI50 / HS578T / C#Cc1ccc(-n2c(/C=C/c3ccc(O)cc3)nc3ncccc3c2=O)cc1
−4.52

* * *

tested on: SW-620; assay: SRB 48 h growth assay, Colon SW-620; format: cell-based, human; details: Homo sapiens, SW-620, Colon, read-out: Log10 GI50 (converted)
measured.parameter: GI50
State the value, then name its unit.

Recorded results for 5 molecules are shown here.
molecule	GI50
C#Cc1ccc(-n2c(/C=C/c3ccc(C(F)(F)F)cc3)nc3ncccc3c2=O)cc1 [4c]	1910 nM
C#Cc1ccc(-n2c(/C=C/c3ccc4ccccc4n3)nc3ncccc3c2=O)cc1 [4t]	355 nM
C#Cc1ccc(-n2c(/C=C/c3cc(OC)c(OC)c(OC)c3)nc3ncccc3c2=O)cc1 [4q]	3310 nM
C#Cc1ccc(-n2c(/C=C/c3ccc(Cl)c(F)c3)nc3ncccc3c2=O)cc1 [4g]	380 nM
C#Cc1ccc(-n2c(/C=C/c3ccc(O)cc3)nc3ncccc3c2=O)cc1 [4b]	3550 nM

We next turn to a different molecule, shown below.
Query: GI50; subject: C#Cc1ccc(-n2c(/C=C/c3ccc4ccccc4c3)nc3ncccc3c2=O)cc1 [4s]
2240 nM

* * *

test system: BT-549; experiment: SRB 48 h growth assay, Breast BT-549; type: cell-based, human; details: Homo sapiens, BT-549, Breast, read-out: Growth Inhibition GI50
Mark 1 for GI50 under 2000 nM, 0 if at or over.

These recorded examples may help you get a feel for the data.
compound.string	discrete.label
C#Cc1ccc(-n2c(/C=C/c3ccc(C(F)(F)F)cc3)nc3ncccc3c2=O)cc1	1
C#Cc1ccc(-n2c(/C=C/c3ccc(O)cc3)nc3ncccc3c2=O)cc1	0
C#Cc1ccc(-n2c(/C=C/c3ccc4ccccc4n3)nc3ncccc3c2=O)cc1	1
C#Cc1ccc(-n2c(/C=C/c3ccc(Cl)c(F)c3)nc3ncccc3c2=O)cc1	1

Please examine the following record next.
# strict comparison: is reported GI50 < 2000 nM? input = C#Cc1ccc(-n2c(/C=C/c3cc(OC)c(OC)c(OC)c3)nc3ncccc3c2=O)cc1
0

* * *

The reader will find reported GI50 values listed item by item below.
experiment: in vitro anticancer activity, non-small cell lung panel; format: cell-based; conditions: Homo sapiens; nine non-small cell lung cancer cell lines, exposure at least 48 h; read-out: GI50, range over panel

compound.string	GI50
C#Cc1ccc(-n2c(/C=C/c3ccc(Cl)c(F)c3)nc3ncccc3c2=O)cc1	200 to 580 nM
C#Cc1ccc(-n2c(/C=C/c3ccc4ccccc4c3)nc3ncccc3c2=O)cc1	180 to 700 nM
C#Cc1ccc(-n2c(/C=C/c3ccc4ccccc4n3)nc3ncccc3c2=O)cc1	1800 to 5660 nM
C#Cc1ccc(-n2c(/C=C/c3cc(OC)c(OC)c(OC)c3)nc3ncccc3c2=O)cc1	1320 to 3900 nM
C#Cc1ccc(-n2c(/C=C/c3ccc(C(F)(F)F)cc3)nc3ncccc3c2=O)cc1	1630 to 7450 nM

We next turn to a different molecule, shown below.
Query: GI50; subject: C#Cc1ccc(-n2c(/C=C/c3ccc(O)cc3)nc3ncccc3c2=O)cc1
2310 to 17300 nM
